tested on: endothelin receptor ETB
assay info: Endothelin receptor binding assay-B (ERBA-B), [125I]-ET-1 binding in rat cerebellar membranes
assay setup: [125I]-ET-1 25 pM, rat cerebellar membranes (also modified with human ETB in CHO-K1)

compound | tested on | IC50
COc1ccc(C2OC(=O)C(c3ccc4c(c3)OCO4)=C2Cc2ccccc2)cc1 (stereo not shown) | endothelin receptor ETB | > 2500 nM

====

Target protein (sequence): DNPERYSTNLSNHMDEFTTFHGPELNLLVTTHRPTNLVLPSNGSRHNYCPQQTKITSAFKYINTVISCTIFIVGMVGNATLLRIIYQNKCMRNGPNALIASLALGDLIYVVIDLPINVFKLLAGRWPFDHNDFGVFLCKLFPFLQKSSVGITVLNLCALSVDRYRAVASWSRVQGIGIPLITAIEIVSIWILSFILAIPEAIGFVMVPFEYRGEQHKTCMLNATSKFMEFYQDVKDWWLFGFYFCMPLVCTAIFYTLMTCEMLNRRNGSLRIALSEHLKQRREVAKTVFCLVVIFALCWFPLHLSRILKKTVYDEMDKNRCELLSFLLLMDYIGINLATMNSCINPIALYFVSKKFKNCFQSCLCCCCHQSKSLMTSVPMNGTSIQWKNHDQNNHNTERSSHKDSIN
IC50 overview

compound | IC50
COc1ccc(C2OC(=O)C(c3ccc4c(c3)OCO4)=C2Cc2ccccc2)cc1 (stereo not drawn) [Example 1] | 700 nM
COc1ccc(C2OC(=O)C(c3ccc4c(c3)OCO4)=C2Cc2ccc(OC)c(C)c2)cc1 (stereo not drawn) [Example 4] | 200 nM
COc1ccc(C2OC(=O)C(c3ccc4c(c3)OCO4)=C2Cc2cc(OC)c(OC)c(OC)c2)cc1 (stereo not drawn) [Example 2] | 30 nM
